- system under test: HPPD variant AVESA V200 (SEQ ID NO: 5) (Avena sativa, UniProt A0ACD5V6K6, A327R/I340E/L359M/V218I/V260A)
- Sequence (A0ACD5V6K6 entry or part of it V218I/V260A/A327R/I340E/L359M): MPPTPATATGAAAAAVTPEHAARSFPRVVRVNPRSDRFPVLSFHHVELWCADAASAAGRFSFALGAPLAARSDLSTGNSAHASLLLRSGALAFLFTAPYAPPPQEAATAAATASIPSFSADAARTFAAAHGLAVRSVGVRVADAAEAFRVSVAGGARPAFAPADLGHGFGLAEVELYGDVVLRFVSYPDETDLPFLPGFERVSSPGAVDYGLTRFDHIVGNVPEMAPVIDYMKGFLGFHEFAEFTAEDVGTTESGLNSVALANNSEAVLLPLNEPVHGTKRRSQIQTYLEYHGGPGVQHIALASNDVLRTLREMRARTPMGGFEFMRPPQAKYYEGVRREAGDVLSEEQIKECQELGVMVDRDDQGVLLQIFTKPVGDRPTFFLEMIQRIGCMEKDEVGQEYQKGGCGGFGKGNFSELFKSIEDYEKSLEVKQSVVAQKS
- assay details: biochemical
pIC50: −log10 of the molar value.

>  <compound>
Cn1nnnc1NC(=O)c1ccc(C(F)(F)F)nc1-n1cncn1 [Herbicide D]

>  <pIC50>
4.20

$$$$

###

- system under test: HPPD variant AVESA V208 (SEQ ID NO: 14) (Avena sativa, UniProt A0ACD5V6K6, A327R/I340E/L359M/P271N/V218I)
- Sequence (A0ACD5V6K6 entry or part of it V218I/P271N/A327R/I340E/L359M): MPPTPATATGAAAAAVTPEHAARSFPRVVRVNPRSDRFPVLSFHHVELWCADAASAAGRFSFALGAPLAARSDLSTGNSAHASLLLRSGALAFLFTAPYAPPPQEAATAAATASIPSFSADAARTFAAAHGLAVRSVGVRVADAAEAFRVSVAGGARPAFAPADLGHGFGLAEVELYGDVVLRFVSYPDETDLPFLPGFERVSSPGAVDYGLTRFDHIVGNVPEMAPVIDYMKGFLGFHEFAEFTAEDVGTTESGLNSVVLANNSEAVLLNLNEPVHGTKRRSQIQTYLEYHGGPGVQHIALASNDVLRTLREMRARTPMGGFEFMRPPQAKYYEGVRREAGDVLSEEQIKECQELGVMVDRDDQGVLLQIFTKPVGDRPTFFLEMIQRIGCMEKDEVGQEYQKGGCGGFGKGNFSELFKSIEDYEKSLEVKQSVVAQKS
- assay details: biochemical
- Format: biochemical
pIC50: −log10 of the molar value.
measured property: pIC50

>  <compound>
Cn1nnnc1NC(=O)c1ccc(C(F)(F)F)nc1-n1cncn1 [Herbicide D]

>  <measurement>
3.74

$$$$

Attribution: patent US20240043860A1
